src = paper PMC12248599

Quick list: efflux ratio at 180 min, 22 mg/mL per entry.
METHOD SUMMARY: Caco-2 monolayer transport (bioavailability) study, AB and BA directions
Type: in vitro ADME, Homo sapiens
CONDITION: human, Caco-2, Papp (BA)/Papp (AB), S2 (22 mg/mL GSE); read-out: ER (efflux ratio)
Method: A reversed phase C18 column (Luna 5 μm C18(2) 100 Å, LC Column 250 × 4.6 mm, Phenomenex) was used to separate the polyphenols at a flow rate of 0.7 mL/min with an injection volume of 60 µL. […] Every polyphenol was quantified using the corresponding reference standard calibration curve. Each of the quantified phenolic compound concentration was expressed as mg/mL […]
Lab note: jot down the number only; don't add units.

Please review the following examples before continuing.
INSERT INTO assay_data (compound, experimental_value) VALUES
  ('O=c1c(O[C@@H]2O[C@H](CO)[C@@H](O)[C@H](O)[C@H]2O)c(-c2ccc(O)cc2)oc2cc(O)cc(O)c12 [K3G, kaempferol-3-glucoside]', 1.3),
  ('O=C(O)c1cc(O)c(O)c(O)c1 [GA, gallic acid]', 0.7);

Could you now look at the following compound, please?
compound O=C(/C=C/c1ccc(O)c(O)c1)O[C@@H](C(=O)O)[C@@H](O)C(=O)O [CA, caftaric acid] , efflux ratio at 180 min, 22 mg/mL observed: 1.4

====

Tested on: Caco-2 cell monolayer
METHOD SUMMARY: Caco-2 monolayer transport (bioavailability) study, AB and BA directions
Format: in vitro ADME, Homo sapiens
CONDITION: AB experiment, donor side, S2 (22 mg/mL GSE), 180 min
Protocol: A reversed phase C18 column (Luna 5 μm C18(2) 100 Å, LC Column 250 × 4.6 mm, Phenomenex) was used to separate the polyphenols at a flow rate of 0.7 mL/min with an injection volume of 60 µL. […] Every polyphenol was quantified using the corresponding reference standard calibration curve. Each of the quantified phenolic compound concentration was expressed as mg/mL […]
Marks after values point to notes of the source that are not given here.
REPORTED METRIC: Apical Side 180 min

Please review the following examples before continuing.
INSERT INTO assay_data (compound, experimental_value) VALUES
  ('O=C(O)c1cc(O)c(O)c(O)c1 [GA, gallic acid]', '3.2 ± 0.3 ^d mg/L'),
  ('O=c1c(OC2O[C@H](CO)[C@H](O)[C@H](O)[C@H]2O)c(-c2ccc(O)cc2)oc2cc(O)cc(O)c12 (some centres unmarked) [K3Gal, kaempferol-3-galactoside]', '0.79 ± 0.02 ^c mg/L'),
  ('O=c1c(O[C@@H]2O[C@H](CO)[C@@H](O)[C@H](O)[C@H]2O)c(-c2ccc(O)c(O)c2)oc2cc(O)cc(O)c12 [Q3G, quercetin-3-glucoside]', '0.37 ± 0.01 ^c mg/L');

compound OC[C@H]1O[C@@H](Oc2cc3c(O)cc(O)cc3[o+]c2-c2cc(O)c(O)c(O)c2)[C@H](O)[C@@H](O)[C@@H]1O [D3G, delphinidin-3-O-glucoside] , Apical Side 180 min observed: 3.94 ± 0.08 ^c mg/L

compound COc1cc(-c2[o+]c3cc(O)cc(O)c3cc2O[C@@H]2O[C@H](CO)[C@@H](O)[C@H](O)[C@H]2O)cc(O)c1O [Pet3G, petunidin-3-O-glucoside] , Apical Side 180 min observed: 3.16 ± 0.08 ^c mg/L
